Kindly state TGI for each of the entries shown.
# System: 786-0 renal
# RUN_DESCRIPTION: NCI tumour cell line growth inhibition, 48 h

Consider the worked cases shown below.
- MOLECULE: "C1=C(c2ccccc2)C(OC2Oc3ccccc3C=C2c2ccccc2)Oc2ccccc21 (stereo not given)"
  ASSAY_SYSTEM: "786-0 renal"
  TGI: "> 100 µM"
- MOLECULE: "CCOC(=O)C1=CSC2=NC3=C(CCC/C3=C\\c3cc(OC)c(OC)c(OC)c3)C(c3cc(OC)c(OC)c(OC)c3)N12 (stereo not given)"
  ASSAY_SYSTEM: "786-0 renal"
  TGI: "> 100 µM"
- MOLECULE: "O=C(/C=C/c1ccc(Cl)cc1)c1ccc(Cl)s1"
  ASSAY_SYSTEM: "786-0 renal"
  TGI: "90.9 µM"
- MOLECULE: "Cc1ccc(-c2nc(C(Cl)Cl)nc3cc(C)nn23)cc1"
  ASSAY_SYSTEM: "786-0 renal"
  TGI: "> 100 µM"
- MOLECULE: "O=C(c1ccccc1)c1ccc2nc3n(c2c1)C(c1c(Cl)cccc1Cl)SC3 (stereo not given)"
  ASSAY_SYSTEM: "786-0 renal"
  TGI: "> 100 µM"
- MOLECULE: "CC1(CCCCO)C=CC(S(=O)(=O)c2ccccc2)CC1 (stereo not given)"
  ASSAY_SYSTEM: "786-0 renal"
  TGI: "14.8 µM"
- MOLECULE: "OC1CSCCSCCCSCCSC1"
  ASSAY_SYSTEM: "786-0 renal"
  TGI: "> 100 µM"
- MOLECULE: "O=C(/C=C/c1cccs1)c1ccc([N+](=O)[O-])cc1"
  ASSAY_SYSTEM: "786-0 renal"
  TGI: "> 100 µM"

Okay, here is my list. What is TGI for each of these?
1. CC(=O)N1c2ccccc2[C@H]2CCc3c([nH]c4ccccc34)[C@H]21
2. Cc1ccc(NC2=CC(=O)C(=O)c3ccccc32)c(C)c1
3. Cc1ccc(NC(=O)c2ccc(NC3=C(Cl)C(=O)N(Cc4ccccc4)C3=O)cc2)cc1Cl
4. CN1CC[C@]23c4c5ccc(O)c4OC2c2[nH]ncc2C[C@H]3[C@H]1C5 (stereo not given in full)

Result:
1. 32.2 µM
2. 20.8 µM
3. 15.9 µM
4. > 100 µM

Okay, here is my list. What is TGI for each of these?
1. CCC1=C(c2ccc(OC)cc2)CC[C@]2(CCNC2=O)[C@@H]1C
2. CN(C)c1ccc2c(c1)OC(N)=C(C#N)C2c1ccc2c(c1)CCCN2C (stereo not given)

Result:
1: > 100 µM; 2: > 100 µM

Okay, here is my list. What is TGI for each of these?
1. CC1(C)CC(O)CC(C)(C)N1.CC1(C)CC(O)CC(C)(C)N1.CC1(C)CC(O)CC(C)(C)N1.CC1(C)CC(O)CC(C)(C)N1.Cl.[Ti]
2. C=C(C)[C@@H]1CC[C@]2(C(=O)n3ccnc3)CC[C@]3(C)[C@H](CC[C@@H]4[C@@]5(C)CCCNC(C)(C)[C@@H]5CC[C@]43C)[C@@H]12
3. CC(N)=O.[Cl][Pt][Cl].[NH-]c1ccn(C2OC(CO)C(O)C2O)c(=O)n1 (stereo not given)
4. Brc1ccc(-c2nc(-c3ccc(Br)cc3)n(-c3ccccc3)n2)cc1

Result:
1. > 100 µM
2. 2.96 µM
3. > 100 µM
4. > 100 µM

Okay, here is my list. What is TGI for each of these?
1. CC(=O)Oc1ccc2cc(Oc3ccccc3)c(=O)oc2c1
2. COc1cccc(N2C(=O)C3CC(CC(C)(C)C)c4c([nH]c5ccccc45)C3C2=O)c1 (stereo not given)

Result:
["> 100 µM", "> 10 µM"]
